TARGET_SYSTEM: Nox1 (Homo sapiens, UniProt Q9Y5S8)
Construct: Plasmids encoding full-length human cDNAs for Nox1 (pcDNA3.1-hNox1); expressed in transfected cells; host or cells: COS-22 (COS-7 stably expressing human p22phox), transient co-transfection
Sequence (Q9Y5S8 whole entry): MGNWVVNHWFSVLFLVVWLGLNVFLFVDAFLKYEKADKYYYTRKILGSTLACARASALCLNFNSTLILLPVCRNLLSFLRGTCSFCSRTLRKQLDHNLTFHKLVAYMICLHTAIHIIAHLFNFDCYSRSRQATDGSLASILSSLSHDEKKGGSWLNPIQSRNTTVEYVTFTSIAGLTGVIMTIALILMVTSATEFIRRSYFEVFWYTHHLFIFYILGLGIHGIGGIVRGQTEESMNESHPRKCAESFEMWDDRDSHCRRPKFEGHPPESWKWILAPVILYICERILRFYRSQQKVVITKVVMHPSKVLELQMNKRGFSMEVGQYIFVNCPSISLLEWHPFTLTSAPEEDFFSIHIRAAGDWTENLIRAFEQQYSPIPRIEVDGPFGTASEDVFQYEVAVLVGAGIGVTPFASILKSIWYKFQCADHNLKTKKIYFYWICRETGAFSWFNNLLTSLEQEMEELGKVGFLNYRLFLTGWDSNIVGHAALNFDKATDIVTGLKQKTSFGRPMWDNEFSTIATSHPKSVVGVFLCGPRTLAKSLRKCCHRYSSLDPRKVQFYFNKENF
Sequence (P13498 2-195 partner limits assumed): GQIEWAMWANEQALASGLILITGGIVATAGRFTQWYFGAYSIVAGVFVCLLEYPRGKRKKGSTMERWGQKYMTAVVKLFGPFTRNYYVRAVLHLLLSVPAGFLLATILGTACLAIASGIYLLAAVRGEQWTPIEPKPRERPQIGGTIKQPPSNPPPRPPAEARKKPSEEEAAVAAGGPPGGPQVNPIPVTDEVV
PROTOCOL_DESCRIPTION: Constitutive Nox1 activity in transiently transfected COS-Nox1/NOXO1/NOXA1 cells, L-012 assay
Assay type: cell-based
MEASUREMENT_CONDITIONS: Table 2

COMPOUND: C=C(C)C[C@@H]1N[C@H]2CC(C)(C)[C@@H]1c1c(Br)ccc(Br)c12
Nox1 inhibitory activity: active
//
COMPOUND: C=C(C)CC1NC2CC(C)(C)C1c1c(Br)cccc12 (racemic)
Nox1 inhibitory activity: active
//
COMPOUND: C=C(C)CC1C2c3c(Br)cccc3C(CC2(C)C)N1CCCCC (racemic) [Compound 11g]
Nox1 inhibitory activity: virtually no effect
//
COMPOUND: C=C(C)CC1C2c3c(Br)cccc3C(CC2(C)C)N1Cc1cccs1 (racemic) [Compound 11h]
Nox1 inhibitory activity: virtually no effect
